The reported numbers originate from patent US20160015828A1.

Biological target: T1, human DLL3 over-expressed on 293 cells (human, UniProt Q9NYJ7 27-618)
T1 construct: identical extracellular and transmembrane regions; also called hDLL3; Delta-like ligand 3
T1 sequence: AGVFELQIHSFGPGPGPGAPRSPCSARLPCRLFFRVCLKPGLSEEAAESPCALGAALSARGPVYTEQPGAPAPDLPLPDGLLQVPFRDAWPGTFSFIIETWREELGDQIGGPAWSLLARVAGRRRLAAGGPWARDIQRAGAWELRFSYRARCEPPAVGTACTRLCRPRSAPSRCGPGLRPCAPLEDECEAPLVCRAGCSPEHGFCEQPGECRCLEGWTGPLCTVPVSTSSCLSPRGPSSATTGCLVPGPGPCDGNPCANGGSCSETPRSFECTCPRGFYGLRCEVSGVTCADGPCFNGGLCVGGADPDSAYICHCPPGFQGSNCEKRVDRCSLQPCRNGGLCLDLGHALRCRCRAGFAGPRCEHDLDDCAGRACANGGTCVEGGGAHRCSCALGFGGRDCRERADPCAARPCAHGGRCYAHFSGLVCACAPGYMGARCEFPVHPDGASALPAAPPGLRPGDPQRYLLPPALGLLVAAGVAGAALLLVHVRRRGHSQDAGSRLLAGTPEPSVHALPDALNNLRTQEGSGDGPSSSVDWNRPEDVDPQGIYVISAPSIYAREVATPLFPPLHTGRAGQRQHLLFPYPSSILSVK
Assay: flow cytometry, 293 cells over-expressing human DLL3
Endpoint Label: binding result

| Binder | Endpoint Label | Experimental Result |
| --- | --- | --- |
| SC16.15 (antibody, V domains shown, murine mAb; V regions only) VH: QVQLQQSGAELAKPGASVKMSCKASGYTFTRYWIHWIKQRPGQGLEWIGYINPTTVYTEFNQNFKDKATLTADKSSTTASMQLSSLTSEDSAVYYCARGGSNFFDYWGQGTTLTVSS VL: DIQMTQSPASLAASVGETVAITCRASENIYYNLAWYQQKQGKSPQLLIYTANSLEDGVPSRFSGSGSGTQYSLKINSMQPEDSATYFCKQAYDVPPTFGGGTKLEIK | binding result | binds |
| SC16.7 (antibody, V domains shown, murine mAb; V regions only) VH: EVQLQQSGPELVKPGASVKISCKASGYSFTGYKMHWVKQSHVKSLEWIGRINPYNGATSYNQNFKDKATLTVDKSSSTAYMDLHSLTSEDSAVYFCARGDYRYDWFAYWGQGTLVTVSA VL: NIMMTQSPSSLAVSAGEKVTMSCKSSQSVLYSSNQKNYLAWYQQKPGQSPKLLIYWASTRESGVPDRFTGSGSGTDFTLTISTVQVEDLAVYYCHQYLSSWTFGGGTKLEIK | binding result | binds |
| SC16.4 (antibody, V domains shown, murine mAb; V regions only) VH: QIQLVQSGPELKKPGETVKISCKASGYTFTDYSMHWVKQAPGKGLKWMGWINTETGEPGYADDFKGRFAFSLETSASTAYLQINNLKNEDTATYFCARYDGYAMDYWGQGTSVTVSS VL: DIQMTQTTSSLSASLGDRVTISCRASQDISNYLNWYQQKPDGTVKLLIYYTSRLHSGVPSRFSGSGSGTDYSLTISNLELEDIATYFCQQGDMLPWTFGGGTKLEIK | binding result | binds |
